- Target entity: DNMT1 full-length (Homo sapiens, UniProt P26358 SEQ:1-1616)
- Sequence (P26358 whole entry): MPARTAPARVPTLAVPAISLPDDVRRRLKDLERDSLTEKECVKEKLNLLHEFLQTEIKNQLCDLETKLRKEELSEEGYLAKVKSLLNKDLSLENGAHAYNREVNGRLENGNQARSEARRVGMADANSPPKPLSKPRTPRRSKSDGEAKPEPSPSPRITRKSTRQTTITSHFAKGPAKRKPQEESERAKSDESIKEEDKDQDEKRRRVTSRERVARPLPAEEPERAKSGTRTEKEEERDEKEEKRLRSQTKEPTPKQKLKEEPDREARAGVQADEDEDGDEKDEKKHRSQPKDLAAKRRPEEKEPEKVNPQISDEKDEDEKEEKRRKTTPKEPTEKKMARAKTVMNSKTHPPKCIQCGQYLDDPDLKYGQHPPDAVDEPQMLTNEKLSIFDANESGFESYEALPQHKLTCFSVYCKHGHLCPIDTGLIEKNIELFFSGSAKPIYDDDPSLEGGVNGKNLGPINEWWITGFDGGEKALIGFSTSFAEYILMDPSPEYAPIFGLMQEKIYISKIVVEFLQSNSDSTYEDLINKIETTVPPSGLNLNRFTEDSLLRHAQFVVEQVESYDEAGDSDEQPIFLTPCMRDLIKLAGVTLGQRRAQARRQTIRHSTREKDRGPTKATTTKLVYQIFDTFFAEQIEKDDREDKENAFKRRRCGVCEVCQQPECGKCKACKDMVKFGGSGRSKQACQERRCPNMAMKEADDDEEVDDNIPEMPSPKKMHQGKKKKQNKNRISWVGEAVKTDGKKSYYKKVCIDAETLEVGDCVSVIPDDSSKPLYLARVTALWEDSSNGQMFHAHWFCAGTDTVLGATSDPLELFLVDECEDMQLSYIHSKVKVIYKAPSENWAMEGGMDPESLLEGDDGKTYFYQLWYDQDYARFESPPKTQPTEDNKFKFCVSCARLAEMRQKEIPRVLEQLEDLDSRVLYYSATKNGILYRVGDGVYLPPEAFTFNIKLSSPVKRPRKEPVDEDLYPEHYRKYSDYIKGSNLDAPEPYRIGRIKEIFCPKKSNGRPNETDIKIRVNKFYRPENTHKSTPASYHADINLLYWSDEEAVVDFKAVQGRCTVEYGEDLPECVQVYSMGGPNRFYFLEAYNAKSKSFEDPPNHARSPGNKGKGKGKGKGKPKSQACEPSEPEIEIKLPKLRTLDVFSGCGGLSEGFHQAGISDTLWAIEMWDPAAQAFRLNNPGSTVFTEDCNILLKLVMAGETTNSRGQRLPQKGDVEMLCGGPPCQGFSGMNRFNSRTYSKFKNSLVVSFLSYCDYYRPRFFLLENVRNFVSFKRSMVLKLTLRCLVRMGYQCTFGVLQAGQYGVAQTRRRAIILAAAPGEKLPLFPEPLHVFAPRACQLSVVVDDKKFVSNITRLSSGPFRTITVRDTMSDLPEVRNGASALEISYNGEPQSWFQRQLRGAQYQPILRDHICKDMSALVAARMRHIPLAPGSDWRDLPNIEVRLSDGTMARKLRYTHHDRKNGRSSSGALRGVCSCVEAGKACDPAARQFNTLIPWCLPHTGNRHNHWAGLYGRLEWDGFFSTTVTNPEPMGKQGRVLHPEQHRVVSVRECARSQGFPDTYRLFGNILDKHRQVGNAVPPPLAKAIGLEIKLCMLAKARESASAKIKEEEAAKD
- Assay notes: inhibition; mixed inhibition vs AdoMet
- Experimental context: tags: baculovirus Sf9
Quantity: Ki (nM)
Just the number in nM, nothing appended.

Need Ki of CAAAGUGCUUACAGUGCAGGUAG (ssRNA) [miR-17-5p] , thanks.
385
